B1: VH:VL chains; a variant is named by its letters at X, in order (parent)
chain 1: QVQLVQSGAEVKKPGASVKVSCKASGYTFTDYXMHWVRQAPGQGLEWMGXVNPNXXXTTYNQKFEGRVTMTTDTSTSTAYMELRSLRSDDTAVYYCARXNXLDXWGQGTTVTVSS
chain 2: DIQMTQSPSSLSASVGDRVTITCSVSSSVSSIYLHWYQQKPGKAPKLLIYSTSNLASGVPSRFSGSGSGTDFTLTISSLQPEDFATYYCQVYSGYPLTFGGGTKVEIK

- Variants of: B1
- test-protocol: yeast display scFab, FACS + sequencing
quantity: non-specific binding call

mutation-annotation: FRTRGVGA
non-specific binding call: binds

mutation-annotation: YRKGSASD
non-specific binding call: binds

mutation-annotation: VTGTSSLD
non-specific binding call: no binding

mutation-annotation: FRGRDYGF
non-specific binding call: binds

mutation-annotation: ATGANSLD
non-specific binding call: no binding

mutation-annotation: DKGRSAGD
non-specific binding call: no binding

mutation-annotation: DKKKDVVF
non-specific binding call: binds

mutation-annotation: VAGTGDLA
non-specific binding call: no binding

mutation-annotation: YAEEGVGY
non-specific binding call: binds

mutation-annotation: YTRAGSAA
non-specific binding call: binds

Prompt line: Supply reported non-specific binding call belonging to this variant: ARAETDVY
Response line: no binding

Prompt line: Supply reported non-specific binding call belonging to this variant: DEGGGSSA
Response line: no binding

Prompt line: Supply reported non-specific binding call belonging to this variant: YRKGGAVD
Response line: binds

Prompt line: Supply reported non-specific binding call belonging to this variant: ARRRGSGA
Response line: binds

Prompt line: Supply reported non-specific binding call belonging to this variant: SKGKGSAA
Response line: binds

Prompt line: Supply reported non-specific binding call belonging to this variant: FKAEAFSF
Response line: binds

Prompt line: Supply reported non-specific binding call belonging to this variant: DGGTNDVD
Response line: no binding

Prompt line: Supply reported non-specific binding call belonging to this variant: DGRGDALS
Response line: no binding

Prompt line: Supply reported non-specific binding call belonging to this variant: DAGRGDGY
Response line: no binding

Prompt line: Supply reported non-specific binding call belonging to this variant: YREGGAGV
Response line: binds

Prompt line: Supply reported non-specific binding call belonging to this variant: VKGTGVAY
Response line: binds

Prompt line: Supply reported non-specific binding call belonging to this variant: YKARGAAY
Response line: binds
